- Test system: Nakaseomyces glabratus
- Protocol summary: Antimicrobial activity against Candida glabrata by Alamar blue method
- Type: functional, organism-based
Quick list: MIC per entry.
Measured metric: MIC

>  <Smiles entry>
Fc1ccc(Oc2cc3ccccc3[n+](CCCCCC3CCCCC3)c2)cc1.[I-]

>  <Reported result>
> 20 µg/mL

$$$$
>  <Smiles entry>
COc1ccccc1CSc1cc2ccccc2[n+](CCCCCC2CCCCC2)c1.[I-]

>  <Reported result>
20 µg/mL

$$$$
>  <Smiles entry>
N#Cc1ccccc1CSc1cc2ccccc2[n+](CCCCCC2CCCCC2)c1.[I-]

>  <Reported result>
> 20 µg/mL

$$$$
>  <Smiles entry>
N#Cc1ccc(CSc2cc3ccccc3[n+](CCCCCC3CCCCC3)c2)cc1.[I-]

>  <Reported result>
20 µg/mL

$$$$
>  <Smiles entry>
CC(C)(C)c1ccc(CSc2cc3ccccc3[n+](CCCCCC3CCCCC3)c2)cc1.[I-]

>  <Reported result>
> 20 µg/mL

$$$$
>  <Smiles entry>
Cc1ccc(CSc2cc3ccccc3[n+](CCCCCC3CCCCC3)c2)cc1.[I-]

>  <Reported result>
5 µg/mL

$$$$
>  <Smiles entry>
[I-].c1ccc2c(c1)cc(SC1CCCCC1)c[n+]2CCCCCC1CCCCC1

>  <Reported result>
> 20 µg/mL

$$$$
>  <Smiles entry>
FC(F)(F)c1ccccc1CSc1cc2ccccc2[n+](CCCCCC2CCCCC2)c1.[I-]

>  <Reported result>
5 µg/mL

$$$$

---

- Tested on: Aspergillus fumigatus
- Protocol summary: Antimicrobial activity against Aspergillus fumigatus ATCC 204305 by Alamar blue method
- Assay type: functional, organism-based
IC50 reference

>  <Smiles entry>
Fc1ccc(Oc2cc3ccccc3[n+](CCCCCC3CCCCC3)c2)cc1.[I-]

>  <Rel>
>

>  <IC50 / µg/mL>
20

$$$$
>  <Smiles entry>
Ic1cc2ccccc2[n+](CCCCCC2CCCCC2)c1.[I-]

>  <Rel>
>

>  <IC50 / µg/mL>
20

$$$$
>  <Smiles entry>
CC(C)(C)c1ccc(CSc2cc3ccccc3[n+](CCCCCC3CCCCC3)c2)cc1.[I-]

>  <Rel>
>

>  <IC50 / µg/mL>
20

$$$$
>  <Smiles entry>
[I-].c1ccc2c(c1)cc(SC1CCCCC1)c[n+]2CCCCCC1CCCCC1

>  <Rel>
>

>  <IC50 / µg/mL>
20

$$$$
>  <Smiles entry>
Clc1cc(Cl)cc(CSc2cc3ccccc3[n+](CCCCCC3CCCCC3)c2)c1.[I-]

>  <Rel>
>

>  <IC50 / µg/mL>
20

$$$$
>  <Smiles entry>
[I-].c1ccc(Oc2cc3ccccc3[n+](CCCCCC3CCCCC3)c2)cc1

>  <Rel>
>

>  <IC50 / µg/mL>
20

$$$$
>  <Smiles entry>
COc1ccc(CSc2cc3ccccc3[n+](CCCCCC3CCCCC3)c2)cc1.[I-]

>  <Rel>
=

>  <IC50 / µg/mL>
5.4

$$$$
>  <Smiles entry>
FC(F)(F)c1ccc(CSc2cc3ccccc3[n+](CCCCCC3CCCCC3)c2)cc1.[I-]

>  <Rel>
=

>  <IC50 / µg/mL>
2.9

$$$$
>  <Smiles entry>
Clc1ccc(CSc2cc3ccccc3[n+](CCCCCC3CCCCC3)c2)cc1Cl.[I-]

>  <Rel>
=

>  <IC50 / µg/mL>
2.8

$$$$
>  <Smiles entry>
COc1cccc(CSc2cc3ccccc3[n+](CCCCCC3CCCCC3)c2)c1.[I-]

>  <Rel>
=

>  <IC50 / µg/mL>
10.9

$$$$
>  <Smiles entry>
Brc1cccc(CSc2cc3ccccc3[n+](CCCCCC3CCCCC3)c2)c1.[I-]

>  <Rel>
=

>  <IC50 / µg/mL>
4.8

$$$$
>  <Smiles entry>
Fc1ccc(CSc2cc3ccccc3[n+](CCCCCC3CCCCC3)c2)cc1.[I-]

>  <Rel>
=

>  <IC50 / µg/mL>
5.2

$$$$
>  <Smiles entry>
Fc1cccc(CSc2cc3ccccc3[n+](CCCCCC3CCCCC3)c2)c1.[I-]

>  <Rel>
=

>  <IC50 / µg/mL>
5.6

$$$$

The reported measurements were obtained from ChEMBL document CHEMBL3085759.
